- system name: T1, GFP-9S library array, motif 4 ND N98F;D124K (synthetic construct, N98F;D124K)
- T1 chain: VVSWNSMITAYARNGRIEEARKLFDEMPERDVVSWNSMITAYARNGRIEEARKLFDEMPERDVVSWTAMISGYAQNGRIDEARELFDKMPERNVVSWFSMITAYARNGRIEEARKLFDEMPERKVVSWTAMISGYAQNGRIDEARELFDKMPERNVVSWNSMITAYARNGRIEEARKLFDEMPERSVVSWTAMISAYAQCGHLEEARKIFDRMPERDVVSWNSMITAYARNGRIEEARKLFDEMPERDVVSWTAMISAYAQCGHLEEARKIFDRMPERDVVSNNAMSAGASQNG
- experimental details: high-throughput RNA pulldown from lysate on Ni-NTA beads; HRP: 50 mM Tris pH 8, 150 mM NaCl, 1 mM beta-mercaptoethanol, 50 ug/ml BSA, 3 ug/ml yeast RNA, 0.5% heparin; ITC and FP: Tris pH 8, 200 mM KCl, 5% glycerol; MST: 50 mM Tris pH 8, 200 mM NaCl, 1 mM DTT, BSA, heparin, 0.05% Tween 20
- assay context: tags: N-terminal His-eGFP; label: 5' Cy5
readout name: pKd
Just the number, please; pKd means minus log10 of the concentration in mol/L.

| binder | readout name | value reported |
| --- | --- | --- |
| AUUAGACGUGA (ssRNA) [Cy5-rpoA-G] | pKd | 7.20 |

Exam item: Look up pKd of AUUACACGUGA (ssRNA) [Cy5-rpoA] and report it.
Marked response: 6.80
